- Assayed System: IRAK4 (Homo sapiens, UniProt Q9NWZ3)
- Construct: endogenous in cells; host or cells: THP-1 cells
- Sequence (Q9NWZ3 1-460): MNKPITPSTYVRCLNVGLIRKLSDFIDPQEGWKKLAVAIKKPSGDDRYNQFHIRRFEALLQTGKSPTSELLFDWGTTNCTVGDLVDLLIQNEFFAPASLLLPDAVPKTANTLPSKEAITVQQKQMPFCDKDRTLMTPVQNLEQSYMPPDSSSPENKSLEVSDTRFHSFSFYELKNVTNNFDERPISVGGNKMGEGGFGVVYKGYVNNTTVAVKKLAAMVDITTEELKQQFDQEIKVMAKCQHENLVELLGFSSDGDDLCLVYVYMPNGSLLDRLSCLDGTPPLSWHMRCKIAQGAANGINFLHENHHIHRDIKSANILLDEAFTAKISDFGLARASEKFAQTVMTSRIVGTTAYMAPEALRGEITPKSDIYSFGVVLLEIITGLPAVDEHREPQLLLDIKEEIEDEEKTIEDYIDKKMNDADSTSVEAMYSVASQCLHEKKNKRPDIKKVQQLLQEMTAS
- Assay Explanation: ALE THP1 HTRF (Advanced Lipoxidation End Product THP1 Homogeneous Time Resolved Fluorescence)
- Type: cell-based
- Experimental Setup: THP1 cells
Readout Label: ALE THP1 HTRF YMIN (%)

Query the reported ALE THP1 HTRF YMIN for IRAK4 (Homo sapiens, UniProt Q9NWZ3); item: N#Cc1cnc2c(ccn2-c2cc(NC3CC3)c(C(=O)NC3CCC(CN4CCC(CNc5ccc(C6CCC(=O)NC6=O)cc5)CC4)CC3)cn2)c1 (stereo not drawn) [P-42]
27.6

Provide the documented ALE THP1 HTRF YMIN with IRAK4 (Homo sapiens, UniProt Q9NWZ3) as the system for CS(=O)(=O)N1CCC(Nc2cc(Nc3ccc4ncsc4c3)ncc2C(=O)NC2CCC(C(=O)N3CCN(c4ccc5c(c4)C(=O)N(C4CCC(=O)NC4=O)C5=O)CC3)CC2)CC1 (stereo not drawn) [P-4]
35.8

# query: ALE THP1 HTRF YMIN | item C[C@@H](CO)Nc1cc(-n2ncc3cc(C#N)cnc32)ncc1C(=O)NC1CCC(CCN2CCN(c3ccc(C4CCC(=O)NC4=O)cc3)CC2)CC1 (stereo partly drawn) [P-78] | system: IRAK4 (Homo sapiens, UniProt Q9NWZ3)
7.6

A. N#Cc1cc2cnn(-c3cc(NC4CC4)c(C(=O)N[C@H]4CC[C@H](CCN5CCN(c6ccc(C7CCC(=O)NC7=O)cc6)CC5)CC4)cn3)c2nc1N (stereo partly drawn) [P-131]
B. N#Cc1cnc2c(cnn2-c2cc(NC3CCCC3)c(C(=O)NC3CCC(C(=O)NC4CCN(c5ccc(C6CCC(=O)NC6=O)cc5)CC4)CC3)cn2)c1 (stereo not drawn) [P-28]
C. C[C@H](C#N)Nc1cc(-c2cnc3cc(C#N)cnn23)ncc1C(=O)N[C@H]1CC[C@H](CCN2CCN(c3ccc(C4CCC(=O)NC4=O)cc3)CC2)CC1 (stereo partly drawn) [P-147]
Reorder: ALE THP1 HTRF YMIN, max to min. // respond by listing labels in the order requested
B, C, A

---

- Assayed System: IRAK4 (Homo sapiens)
- Construct: endogenous in cells; host or cells: THP-1 cells
- Assay Explanation: LVL THP1 HTRF (THP1 Homogeneous Time Resolved Fluorescence)
- Type: cell-based
- Experimental Setup: THP1 cells, 18 h incubation with compound, read-out: LVL THP1 HTRF EC50
Readout Label: DC50 (µM)

A. C[C@H](C#N)Nc1cc(-n2ncc3cc(C#N)cnc32)ncc1C(=O)N[C@H]1CC[C@@H](CCN2CC[C@H]3[C@@H]2CCN3c2ccc(N3CCC(=O)NC3=O)c(Cl)c2)CC1 (single isomer, unassigned) [P-488]
B. C[C@H](C#N)Nc1cc(-n2ncc3cc(C#N)cnc32)ncc1C(=O)N[C@H]1CC[C@H](CCN2CCN(c3ccc([C@@]4(C)CCC(=O)NC4=O)cc3)[C@@H](C)C2)CC1 [P-275]
C. C[C@H](C#N)Nc1cc(-n2ncc3cc(C#N)cnc32)ncc1-n1cc([C@H]2CC[C@H](CCN3CC[C@H]4[C@@H]3CCN4c3ccc(N4CCC(=O)NC4=O)c(F)c3)CC2)nn1 (single isomer, unassigned) [P-461]
Sort the listed entries by DC50, smallest first. Write the labels, ordered according to the request.
C, B, A
(C: 0.0037 µM, B: 0.0146 µM, A: 4.45 µM)

---

- Assayed System: IRAK4 (Homo sapiens, UniProt Q9NWZ3)
- Construct: endogenous in cells; host or cells: THP-1 cells
- Assay Explanation: LVL THP1 HTRF (THP1 Homogeneous Time Resolved Fluorescence)
- Format: cell-based
- Experimental Setup: THP1 cells, 18 h incubation with compound, read-out: LVL THP1 HTRF EC50
Counter-ions that a name gives are not always drawn.
Readout Label: DC50 (nM)

For C[C@H](C#N)Nc1cc(-n2ncc3cc(C#N)cnc32)ncc1C(=O)N[C@H]1CC[C@H](CCN2CCN(c3ccc(C4CCC(=O)NC4=O)cc3)C3(CCC3)C2)CC1 (stereo partly shown) , what is its reported DC50?
415

Query: DC50; subject: CCc1nc2c(cnn2-c2cc(N[C@H](C)C#N)c(C(=O)N[C@H]3CC[C@H](CCN4CCN(c5ccc(C6CCC(=O)NC6=O)cc5)CC4)CC3)cn2)cc1C#N (stereo partly shown)
58

Please look up its DC50: C[C@H](C#N)Nc1cc(-n2ncc3cc(C#N)cnc32)ncc1-n1cc([C@H]2CC[C@H](CCN3CCN(c4ccc(N5CCC(=O)NC5=O)nc4)CC3)CC2)nn1
30.5

Give its DC50 value. Item: C[C@H](C#N)Nc1cc(Nc2ncc(C#N)cn2)ncc1-n1cc([C@H]2CC[C@H](CCN3CCN(c4ccc(C5CCC(=O)NC5=O)cc4)CC3)CC2)nn1 (stereo partly shown)
11.1

Any idea what its DC50 is? The compound is Cc1cc(N2CC[C@H]3[C@@H]2CCN3CC[C@H]2CC[C@H](NC(=O)c3cnc(-n4ncc5cc(C#N)cnc54)cc3N[C@H](C)C#N)CC2)ccc1N1CCC(=O)NC1=O [P-489]
1000

P. C[C@@H](C#N)Nc1cc(-n2ncc3cc(C#N)cnc32)ncc1-n1cc([C@H]2CC[C@H](CCN3CCN(c4ccc(C5CCC(=O)NC5=O)cc4)CC3)CC2)nn1 (stereo partly shown)
Q. C[C@H](C#N)Nc1cc(-n2ncc3cc(C#N)cnc32)ncc1-n1cc(C23CCC(CCN4CCN(c5ccc(C6CCC(=O)NC6=O)cc5)CC4)(CC2)C3)nn1 (stereo partly shown) [P-202, TFA]
R. C[C@H](C#N)Nc1cc(-n2ncc3cc(C#N)c(N)nc32)ncc1C(=O)N[C@H]1CC[C@H](CCN2CCN(c3ccc(C4CCC(=O)NC4=O)c(Cl)c3)[C@H](C)C2)CC1 (stereo partly shown)
S. C[C@H](C#N)Nc1cc(-n2ncc3cc(C#N)cnc32)ncc1-n1cc([C@H]2CC[C@H](CCN3CC[C@@H]4[C@H]3CN4c3ccc(N4CCC(=O)NC4=O)cc3)CC2)nn1 (single isomer, unassigned)
# rank_down: sort by DC50, max first Write out the labels following the order that was asked for.
S, P, R, Q

---

- Assayed System: IRAK4 (Homo sapiens)
- Construct: endogenous in cells; host or cells: THP-1 cells
- Assay Explanation: LVL THP1 HTRF (THP1 Homogeneous Time Resolved Fluorescence)
- Format: cell-based
- Experimental Setup: THP1 cells, 18 h incubation with compound, read-out: LVL THP1 HTRF EC50
Readout Label: DC50 (µM)

P. N#Cc1cnc2c(cnn2-c2cc(NC3CCCC3)c(-n3cc([C@H]4CC[C@H](CCN5CCN(c6ccc(N7CCC(=O)NC7=O)cc6)CC5)CC4)nn3)cn2)c1
Q. C[C@H](C#N)Nc1cc(-n2ncc3cc(C#N)cnc32)ncc1-n1cc([C@H]2CC[C@H](C(Cl)CN3CCN(c4ccc(C5CCC(=O)NC5=O)cc4)CC3)CC2)nn1 (some centres unmarked)
Between the entries labelled P and Q , which has a larger DC50 value on record? Give the chosen item's label as your response.
P
(P: 0.16 µM, Q: 0.002 µM)

P. C[C@]1(c2ccc(N3CCN(CC[C@H]4CC[C@H](c5cn(-c6cnc(-n7ncc8cc(C#N)cnc87)cc6NC6(C#N)CC6)nn5)CC4)CC3)cc2)CCC(=O)NC1=O
Q. CC[C@@H]1CN(CC[C@H]2CC[C@H](c3cn(-c4cnc(-n5ncc6cc(C#N)cnc65)cc4N[C@H](C)C#N)nn3)CC2)CCN1c1ccc(N2CCC(=O)NC2=O)cc1 [P-441]
R. C[C@H](C#N)Nc1cc(-n2ncc3cc(C#N)cnc32)ncc1-n1cc([C@H]2CC[C@](O)(CCN3CCN(c4ccc(N5CCC(=O)NC5=O)cc4)CC3)CC2)nn1 (single isomer, unassigned) [P-373]
// sort entries: DC50, high to low Answer format: list of labels, ordered as asked.
R, P, Q
